tested on: NCI-H23 lung; assay: NCI-60 one-dose screen, 48 h; settings: 10 µM unless noted
This is part of a sample that, as a whole, favours compounds with a hit. Of some 83,000 tested, about 20% had one in any assay. Calls of active or inactive are those of the source. How the source made its calls: active means growth percent below 10; inactive means the rest.
Valid outcomes are listed here; reply with one: 1 (yes) for active, 0 (no) for inactive

Request: Just curious, what result did `COC(=O)[C@]12CC[C@@H](C)[C@H](C)[C@@H]1C1=CC[C@@H]3[C@@]4(C)C(C=O)=C[C@@](C)(COC(C)=O)C4=CC[C@@]3(C)[C@]1(C)CC2` get here?
Response: 1 (yes)

Request: Just curious, what result did `O=C1CCc2c(sc3[nH]c(=S)n(-c4ccc(OC(F)(F)F)cc4)c(=O)c23)C1` get here?
Response: 0 (no)

Request: Just curious, what result did `CN1CCN(CC(=O)Nc2nc(-c3cccc(NS(=O)(=O)c4cccc5c(N(C)C)cccc45)c3)cs2)CC1` get here?
Response: 0 (no)

Request: Just curious, what result did `COC(=O)CCC1=C(C)C2=NC1=CC1=NC(=CC3=NC(=Cc4[nH]c(/c(=C(/C)O)c4C)=C2)C(C(C)=O)=C3C)C(C)=C1CCC(=O)OC` get here?
Response: 0 (no)

Request: Just curious, what result did `CNC(=O)c1cc(Oc2ccc3nc(Nc4ccc(Cl)c(C(F)(F)F)c4)ccc3c2)ccn1` get here?
Response: 0 (no)

Request: Just curious, what result did `COC(=O)[C@H](CSC)N(C)C(=O)[C@@H]1CSSC[C@@H](NC(=O)c2nc3ccccc3cc2O)C(=O)NCC(=O)N1C` get here?
Response: 0 (no)

Request: Just curious, what result did `Cc1ccccc1NC(=O)N/C(N)=N/c1nc(C)c(C)s1` get here?
Response: 0 (no)

Request: Just curious, what result did `COCCN(C(=O)c1ccc(F)cc1F)c1c(N)n(Cc2ccccc2)c(=O)[nH]c1=O` get here?
Response: 0 (no)
